Where do the numbers come from? From patent US20080267971A1.

# assay-target: T1, human Angiopoietin-2 (human, UniProt O15123 19-496)
# T1 construct: Mostly bought recombinant protein (R&D Systems 623-AM/CF, 623-AN; biotinylated BT623) or supernatant of transfected 293F cells; also called Ang-2; rhAng-2
# T1 sequence: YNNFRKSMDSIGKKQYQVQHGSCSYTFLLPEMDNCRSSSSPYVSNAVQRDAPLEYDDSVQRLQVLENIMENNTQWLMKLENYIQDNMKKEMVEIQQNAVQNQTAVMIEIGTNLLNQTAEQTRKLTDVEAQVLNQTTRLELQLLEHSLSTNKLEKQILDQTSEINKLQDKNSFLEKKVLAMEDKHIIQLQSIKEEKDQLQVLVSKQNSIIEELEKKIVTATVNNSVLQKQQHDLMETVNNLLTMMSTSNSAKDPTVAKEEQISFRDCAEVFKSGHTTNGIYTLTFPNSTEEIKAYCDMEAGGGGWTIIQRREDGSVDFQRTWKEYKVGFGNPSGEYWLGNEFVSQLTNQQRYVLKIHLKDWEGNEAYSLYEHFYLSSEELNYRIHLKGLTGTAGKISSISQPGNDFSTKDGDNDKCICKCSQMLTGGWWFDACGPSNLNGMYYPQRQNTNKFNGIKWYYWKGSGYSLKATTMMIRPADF
# method-description: Biacore, mAb captured
result-type: kon
Returns: string containing the numeric result and its unit.

Lookup: Dear colleague, I am looking for the recorded kon of the following binder: mAb 5.28.1 (antibody, V domains shown, Human hybridoma IgG (XenoMouse); also called x5.28) VH: EVQLVESGGIVVQPGGSLRLSCAASGFTFDDYTMHWVRQTPGKGLEWVSLISWDGGSTYYADSVKGRFTISRDNSKNSLYLQMNSLRTEDTALYYCAKDIDIAVAGTGFDHWGQGTLVTVSS VL: EIVMTQSPATLSVSPGERATLSCRASQSVTSNLAWYQQKPGQAPRLLIYGALIRATGIPARFSGSGSGTEFTLTISSLQSEDFAVYYCQQYNNWPFTFGPGTKVDIKR
Found: 250000 M⁻¹ s⁻¹

Lookup: Dear colleague, I am looking for the recorded kon of the following binder: mAb 5.86.1 (antibody, V domains shown, Human hybridoma IgG (XenoMouse); also called x5.86) VH: QVQLVQSGAEVKKPGASVKVSCKASGYTFTGYHMYWVRQAPGQGLEWLGWINPNSGGTNYAQKFQGRVTMTRDTSISTAYMELSRLRSDDTAVYYCVRDQGIAAAGPFDYWCQGTLVTVSS VL: DIRMTQSPSSLSASVGDRVTITCRASQRISTYLNWYQQKPGKAPKFLIYAASSLQSGVPSRFSGSGSGTDFTLTISSLQPEDFATYYCQQSYTTPFTFGPGTKVDIKR
Found: 150000 M⁻¹ s⁻¹

Lookup: Dear colleague, I am looking for the recorded kon of the following binder: mAb 5.88.3 (antibody, V domains shown, Human hybridoma IgG (XenoMouse); also called x5.88) VH: EVQMVESGGGLVQPGGSLRLSCAASGFTLRSYWMSWVRQAPGKGLEWVANIKEDGSEKYHVDSVKGRFTISRDNAENSLFLQMSSLRAEDTAVYYCARDMEASAGLFDYWGQGTLVTVSS VL: EIVMTQSPATLSVSPGERAILSCRASQSISSNLAWYQQKPGQAPRLLIYGASTRATGIPARFSGSGSGTEFTLTISSLQSEDFAVYYCQQYNYWWTFGQGTKVEIKR
Found: 270000 M⁻¹ s⁻¹
